pIC50: −log10 of the molar value.
pIC50 for Histone deacetylase 1 (Homo sapiens, UniProt Q13547) - collated from the literature.
parameter: pIC50

> print(dat)
                                   compound  parameter        result
1  Nc1ccccc1NC(=O)c1ccc(N2CC[C@H](NC(=O)OCC3c4ccccc4-c4ccccc43)C2)cc1      pIC50        ≥ 7.00
2  CC1(C)C(=O)N(Cc2ccc(-c3nnc(C(F)F)o3)cn2)C(=O)N1c1cccc(F)c1      pIC50        < 5.00
3  Cc1c(Cc2ccc(C(=O)NO)cc2)c2ccccc2n1CC1CCN(Cc2cc(F)c(F)cc2F)CC1      pIC50        < 5.00
4  Cc1[nH]c2ccccc2c1C1C/C(=N/O)CN(Cc2ccc(/C=C/C(=O)NO)cc2)C1 (centres unmarked)      pIC50          7.77
5  CN(C)Cc1ccc(OCCn2ccc3ccc(C(=O)NO)cc32)cc1      pIC50        < 5.00
6  Nc1ccc(-c2cccs2)cc1NC(=O)c1ccc2c(c1)CC(=O)N2CCN1CCCCC1      pIC50  7.82 to 8.00
7  CN1CC=C(c2cnc3c(ccn3Cc3ccc(C(=O)NO)cc3)c2)CC1      pIC50          5.93
8  CCC(=O)CCCCC[C@H](NC(=O)Cc1nonc1C)c1ncc(-c2cc3ccccc3nc2OC)o1      pIC50        > 7.00
